System: MOLT-4
Assay: NCI tumour cell line growth inhibition, 48 h
Calls of active or inactive are those of the source. No stated cut-off is given here; in the data, active = GI50 up to about 1.1 µM and inactive = higher.
Write down one outcome, taken from active, inactive

Solved entries:
# compound, category
data = [
    ("CC1=C(C)C(=O)OC(C(C)(O)C2(O)CC3OC34C3CC(O)C56OC5C=CC(=O)C6(C)C3CCC42C)C1 (stereo unspecified)", "active"),
    ("COC(=O)C1=C(c2ccc(OC)c(OC)c2)OC(c2ccc(OC)c(OC)c2)C1 (stereo unspecified)", "inactive"),
    ("COC(=O)/C=C1/CCC2[C@@H](C(=O)CC3[C@]2(C)CCC[C@@]3(C)C(=O)OC)C1C (stereo partly specified)", "inactive"),
    ("C1CNOCCCONCCCNOCCCONC1", "inactive"),
    ("Cc1ccc(C)c(NC(=O)CC2SC(Nc3ccccc3Cl)=NC2=O)c1 (stereo unspecified)", "inactive"),
]

input: Each compound tested received a call. Report the one for O=S(=O)(NCn1ccc2ccccc21)c1ccccc1 .
output: inactive

input: Again, but for COc1ccc2c(c1OC)C(C(Cl)(Cl)Cl)N1CCc3cc4c(cc3C1=C2)OCO4 (stereo unspecified)
output: inactive

input: Again, but for NN=C1/C(=C\c2ccccc2)CCC/C1=C/c1ccccc1
output: inactive

input: Again, but for O=C(O)CS(=O)(=O)C(c1ccccc1)c1ccccc1
output: inactive

input: Again, but for CN1N=C(Nc2ccccc2)Sc2c1cnn(-c1ccccc1)c2=O
output: inactive

input: Again, but for C=CCc1c(O)c2nsnc2c2nsnc12
output: inactive

###

Test system: NCI-H522
Assay: NCI tumour cell line growth inhibition, 48 h
Activity calls are given as the source filed them. Cut-off read from the data, not from the text of the source: active = GI50 up to about 1.1 µM and inactive = higher.
Each entry below carries its reported GI50.

# compound, GI50
data = [
    ("COc1ccc(-c2cc(=O)c3c(O)cc(O)cc3o2)c(OC)c1OC", "52.1 µM (inactive)"),
    ("CC(=O)OCC12C(OC(C)=O)C[C@@H](C)C3(CC(c4ccoc4)OC3=O)C1CCC(O)C21CO1 (some centres undefined)", "> 100 µM (inactive)"),
    ("CCOC(=O)CCC(NC(=O)c1ccc(Nc2nc3cc(C(F)(F)F)ccc3nc2C(=O)OCC)cc1)C(=O)OCC (centres undefined)", "11.2 µM (inactive)"),
    ("COc1ccc(OC)c2c1C(=O)C(Cl)=C(N1CCN(CCOCCO)CC1)C2=O", "4.3 µM (inactive)"),
]

input: Reported GI50, compound CC1=NN(c2cccc(Cl)c2)C(=N/c2nc3ccccc3s2)/C1=C\c1ccccc1O : ____
output: 20 µM (inactive)

input: Again, but for CC(=O)Nc1ccccc1-c1nc2ccccc2nc1C
output: > 100 µM (inactive)

input: Again, but for CC(C)CCC[C@@H](C)[C@H]1CC[C@H]2[C@@H]3CC[C@H]4C[C@H](N)CC[C@]4(C)[C@H]3CC[C@]12C
output: 21 µM (inactive)

input: Again, but for ClCc1nc2cc(Cl)ccc2o1
output: 1.6 µM (inactive)

input: Again, but for COc1c2cc([N+](=O)[O-])cc1CNC(=O)CN1CCOCCOCCN(CCOCCOCC1)CC(=O)NC2
output: > 100 µM (inactive)

###

Each entry below carries its reported GI50.
Tested on: K562
Test: NCI tumour cell line growth inhibition, 48 h
Active and inactive are the calls of the source. Cut-off read from the data, not from the text of the source: active = GI50 up to about 1.1 µM and inactive = higher.

Worked examples, 8 compounds total:
# compound, value observed
rows = [
    ("CN(C)c1ccc(/C=C(\\NC(=O)c2ccccc2)C(=O)NC(CC(=O)O)C(=O)O)cc1 (stereo not given)", "18.2 µM (inactive)"),
    ("OCCCc1cc(O)c2c(c1)C(CO)C(c1ccc(O)c(O)c1)O2 (stereo not given)", "> 100 µM (inactive)"),
    ("Cc1nc(C(N)=O)c(N)n1CCN1CCN(C(=O)CCCCCCCCCCNC2NC=Nc3[nH]cnc32)CC1 (stereo not given)", "13.2 µM (inactive)"),
    ("CC(=O)/C=C\\C1CC2C=CC1C2 (stereo not given)", "21.6 µM (inactive)"),
    ("Cc1c(N2CCN(C)CC2)nc2ccc(Cl)cc2c1-c1ccccc1", "14.5 µM (inactive)"),
    ("O=C(O)CSC(CC(=O)c1ccc(Cl)cc1)c1ccc(Cl)cc1 (stereo not given)", "32.1 µM (inactive)"),
    ("COc1cc(CC2c3cc(OC)c(OC)cc3CCN2C)c(Oc2cc3c(cc2OC)-c2c(O)c(OC)cc4c2C(C3)N(C)CC4)cc1OC (stereo not given)", "10.8 µM (inactive)"),
    ("Oc1cc(O)c2c(c1)O[C@H](c1cc(O)c(O)c(O)c1)[C@@H](O)C2", "18 µM (inactive)"),
]

input: Kindly state the measured GI50 obtained for OCCCc1ccc2c(c1)[C@H](CO)[C@@H](c1ccc(O)cc1)O2 with K562.
output: > 100 µM (inactive)

input: Again, but for CC(C)CCCC(C)[C@H]1CC[C@H]2n3c(nnc3-c3ccccc3)CCC[C@]12C (stereo not given in full)
output: 3.8 µM (inactive)

Hey, just so you know, these numbers are from ChEMBL document CHEMBL1201862.
